- Test system: HCT 116 colon carcinoma cell line
- runDescription: Cell proliferation MTT assay, HCT 116
- Format: cell-based
- testConditions: Homo sapiens, HCT-116, 24 h, HCT 116, compound at 10 uM, 24 h + 24 h recovery in drug-free medium; read-out: MTT cell proliferation, percentage compared to control cells considered as 100%
Listing of entries alongside the reported activity at 10 µM.
Give just the number in %; leave the unit off.

Consider the following illustrative entries.
compound	activity at 10 µM [%]
COc1ccc2c(CCc3c[nH]c4ccccc34)c3[n+](cc2c1OC)CCc1cc2c(cc1-3)OCO2 [NAX019]	32.1
COc1ccc(CCc2c3[n+](cc4c(OC)c(OC)ccc24)CCc2cc4c(cc2-3)OCO4)cc1 [NAX013]	60.2
COc1ccc2c(CCc3ccc(Cl)cc3)c3[n+](cc2c1OC)CCc1cc2c(cc1-3)OCO2 [NAX014]	15.4

Give the measured activity at 10 µM of COc1ccc2c(CCC(c3ccccc3)c3ccccc3)c3[n+](cc2c1OC)CCc1cc2c(cc1-3)OCO2 [NAX018] .
13.7

Reference for the values: patent US8188109B2
